Tested on: KM12 colon
Assay: NCI-60 one-dose screen, 48 h
Details: 10 µM unless noted
Description: Growth inhibition of the KM12 human tumor cell line is measured as a screen for anti-cancer activity. Cells are grown in 96 well plates and exposed to the test compound for 48 hours. Compounds are tested at a single concentration, which is 10^-5 M for most compounds. The reported endpoint is percent growth (GI% or GIPRCNT), where numbers from 0 - 100% represent growth inhibition, and numbers from -100% - 0 represent cell death. For example, a value of 40 represents 60% growth inhibition. […]
About 83,000 compounds went through this panel and 20% of them were active in at least one assay; those are over-represented in the sample as a whole. Activity calls are given as the source filed them. The calls were made as follows: active = growth percent below 10; inactive = the rest.
Respond using exactly one of the listed classes: true = active, false = inactive

In: Called result for `Cc1ccc2c(c1)nc(-c1ccccc1)n2CC(=O)N=Nc1c(O)[nH]c2ccc(Cl)cc12`
Out: true

In: Called result for `COc1ccc2[nH]c(=O)cc(-n3ncc(C(=O)/C=C/c4cc(OC)c(OC)c(OC)c4)c3C)c2c1`
Out: true

In: Called result for CC1=C(C(=O)OC(C)C)C(c2ccc(O)cc2)NC(=O)N1 (centres undefined)
Out: false

In: Called result for `CC[C@]12C=CCN3CC[C@]4(C(=C(C(=O)OC)C1)Nc1cc(OC)c([C@@H]5[C@H]6O[C@H]6[C@@]6(CC)CC(C(=O)OC)=C7Nc8cc(O)ccc8[C@@]78CCN5[C@@H]68)cc14)[C@@H]32`
Out: true

###

System: SNB-19 CNS
Assay: NCI-60 one-dose screen, 48 h
Conditions: 10 µM unless noted
Description: Growth inhibition of the SNB-19 human tumor cell line is measured as a screen for anti-cancer activity. Cells are grown in 96 well plates and exposed to the test compound for 48 hours. Compounds are tested at a single concentration, which is 10^-5 M for most compounds. The reported endpoint is percent growth (GI% or GIPRCNT), where numbers from 0 - 100% represent growth inhibition, and numbers from -100% - 0 represent cell death. For example, a value of 40 represents 60% growth inhibition. […]
This is part of a sample that, as a whole, favours compounds with a hit. Of some 83,000 tested, about 20% had one in any assay. The source made the active and inactive calls. Rule for the calls: active = growth percent below 10; inactive = the rest.
Respond using exactly one of the listed classes: active, inactive

In: Called result for `O=C1c2cccc3c(N4CCN(c5ccccc5)CC4)ccc(c23)C(=O)N1c1cccc(-c2nn(-c3ccccc3)cc2-c2nc3ccccc3s2)c1`
Out: inactive

In: Called result for `COc1ccc(Nc2nnc(-c3c[nH]c4ccccc34)o2)cc1`
Out: inactive

In: Called result for `NS(=O)(=O)c1ccc(Nc2nc(N/N=C/c3cc(Br)c(O)c(Br)c3)nc(Nc3ccccc3)n2)cc1`
Out: inactive

In: Called result for `Nc1nnc(-c2cncc(Br)c2)c(-c2c[nH]c3ccc(Br)cc23)n1`
Out: inactive

In: Called result for `N/C(=N\c1nc2ccc([N+](=O)[O-])cc2s1)NC(=O)Nc1ccccc1Cl`
Out: inactive

In: Called result for COc1ccc(C2=Nc3c(N)nc(N)nc3NC(c3ccc(Oc4nc(Nc5ccc(F)cc5)nc(N(C)C)n4)c(OC)c3)C2)cc1 (stereo not drawn)
Out: inactive

In: Called result for COc1cc(C2CC(c3ccc(F)cc3)=Nc3c(N)nc(N)nc3N2)ccc1Oc1nc(Nc2ccc(F)cc2)nc(N(C)C)n1 (stereo not drawn)
Out: inactive

In: Called result for `O=C(CSc1nnc(-c2ccc(-c3nc4ccc(Cl)cc4[nH]3)cc2)o1)Nc1ccc(Br)cc1`
Out: active

###

tested on: A549/ATCC NSCLC; experiment: NCI-60 one-dose screen, 48 h (100 = growth as untreated, 0 = no growth, -100 = all killed); settings: 10 µM unless noted
About 83,000 compounds went through this panel and 20% of them were active in at least one assay; those are over-represented in the sample as a whole.
So I've got a bunch of molecules here, and I need their growth values.
Number only, in %; omit the unit.

Measured on A549/ATCC NSCLC, `COc1cccc(NC(=O)c2ccc(NC(=O)CCl)s2)c1` has a documented growth of 39.7

Measured on A549/ATCC NSCLC, `Cc1ccc2c(c1)/C(=C/C(=O)c1cc3ccccc3oc1=O)C(=O)N2` has a documented growth of 89.5

Measured on A549/ATCC NSCLC, `Nc1cc2ccccc2c(=O)n1NC(=O)c1ccc(Br)cc1` has a documented growth of 100

Measured on A549/ATCC NSCLC, `CCc1ccccc1NC(=O)N/C(N)=N/c1nc2ccccc2s1` has a documented growth of 9.65

Measured on A549/ATCC NSCLC, `COc1ccc(-c2cc(C(=O)OCc3ccc(Br)cc3)nn2-c2ccc(S(C)(=O)=O)cc2)cc1OC` has a documented growth of 78.6

Measured on A549/ATCC NSCLC, `COC(=O)c1cc(C(C)=O)n2c3ccccc3c3ccccc3c12` has a documented growth of 96.9

Measured on A549/ATCC NSCLC, `O=C(CSc1nc2sc3c(c2c(=O)n1-c1ccc(Cl)cc1)CCCC3)NNC(=O)c1ccc(Br)cc1` has a documented growth of 82.6

Measured on A549/ATCC NSCLC, O=C1CCC(N2C(=O)c3cccc(NCCOCCOCCOCCC(=O)NCCCC(=O)NC(c4ccc5c(c4)OCO5)c4cc(Cl)c5cccnc5c4O)c3C2=O)C(=O)C1 (stereo not given) has a documented growth of 88.3

Measured on A549/ATCC NSCLC, `Cc1nn(-c2ccccc2)c2nc(C)n(C(=O)N/N=C/c3cccc([N+](=O)[O-])c3)c(=O)c12` has a documented growth of 83.7

Measured on A549/ATCC NSCLC, Cc1ccc(C2CC(c3ccc(NC(=S)Nc4ccccc4)cc3)=NN2c2ccc(S(N)(=O)=O)cc2)cc1 (stereo not given) has a documented growth of 15.1

Measured on A549/ATCC NSCLC, `S=C(NCCc1ccccc1)Nc1ccc(OCc2nc3ccc(Cl)cc3[nH]2)cc1` has a documented growth of 51.2

Measured on A549/ATCC NSCLC, `CS(=O)(=O)Nc1cccc(-n2cnc3cc(-c4ccc(O)cc4)ccc32)c1` has a documented growth of 53.7

Measured on A549/ATCC NSCLC, `CCCCCCCCCCCCCCCCCC(=O)Nc1ccc(OC)cc1` has a documented growth of 104

Measured on A549/ATCC NSCLC, `Cc1ccc(NC(=O)N/N=C/c2c[nH]c3ccccc23)c(C)c1` has a documented growth of 14.9

Measured on A549/ATCC NSCLC, O=C(O)CC1S/C(=N/N=C/c2nc3ccccc3s2)NC1=O (stereo not given) has a documented growth of 96

Measured on A549/ATCC NSCLC, `COC(=O)c1c(C(=O)OC)c2ccc3c4ccccc4ccc3n2c1C(=O)OC` has a documented growth of 97.2

Measured on A549/ATCC NSCLC, `O=[N+]([O-])c1cccc(-c2nnc3c(/C=C/c4ccc(F)cc4)nc4ccccc4n23)c1` has a documented growth of 95

Measured on A549/ATCC NSCLC, `COc1ccc(OC)c(Cn2cc(C#N)c(N)c2C(=O)c2ccc(Br)cc2)c1` has a documented growth of 46.4

Measured on A549/ATCC NSCLC, `COc1ccc2c(c1)c(-c1cc(N)n3nc(-c4c[nH]c5ccccc45)cc3n1)cn2C` has a documented growth of -88.1

Measured on A549/ATCC NSCLC, `Nc1cc(-c2c[nH]c3ccc(F)cc23)nc2cc(-c3c[nH]c4ccccc34)nn12` has a documented growth of 9.83

###

tested on: CCRF-CEM leukemia; assay: NCI-60 one-dose screen, 48 h; conditions: 10 µM unless noted
About 83,000 compounds went through this panel and 20% of them were active in at least one assay; those are over-represented in the sample as a whole. The source made the active and inactive calls. How the source made its calls: active means growth percent below 10; inactive means the rest.
Respond using exactly one of the listed classes: active, inactive

In: Called result for O=S(=O)(c1nc(-c2ccc(Br)cc2)oc1-c1ccc(Cl)cc1)N1CCCC(O)C1 (stereo not given)
Out: inactive

In: Called result for Fc1cccc(CNc2nc(SCCN3CCOCC3)nc3c2cnn3CC(Cl)c2ccc(Br)cc2)c1 (stereo not given)
Out: active

In: Called result for CC1=C(C(=O)OC(C)C)C(c2ccc(O)cc2)NC(=O)N1 (stereo not given)
Out: inactive

In: Called result for `C=CCSc1nnc(-c2ccc(-c3nc4ccccc4[nH]3)cc2)o1`
Out: inactive

In: Called result for `O=C(N/N=C/c1ccc(Cl)cc1)c1ccc(OCc2nc3ccc(Cl)cc3[nH]2)cc1`
Out: inactive

In: Called result for `CN(C)CCCc1ccc(Nc2cnn(C)c(=O)c2Cl)cc1`
Out: inactive

In: Called result for `Nc1cc2ccccc2c(=O)n1NC(=O)c1ccc(Br)cc1`
Out: inactive

In: Called result for O=C(O)CC1S/C(=N/N=C/c2nc3ccccc3s2)NC1=O (stereo not given)
Out: inactive

In: Called result for `COc1ccc(-c2cc(C(=O)OCc3ccc(Br)cc3)nn2-c2ccc(S(C)(=O)=O)cc2)cc1OC`
Out: inactive

In: Called result for `N#Cc1c(-c2ccc(F)cc2)nc(SCc2ccc(F)cc2)nc1N1CCNCC1`
Out: active

In: Called result for `CCCN(CCC)S(=O)(=O)c1ccc(C(=O)O)cc1.CCCN(CCC)S(=O)(=O)c1ccc(C(=O)O)cc1.[Cl][Pt+2][Cl].[NH2-].[NH2-]`
Out: inactive

In: Called result for `COc1ccc(N=Nc2c(N)nn3c(N)c(C#N)c(-c4ccc(F)cc4)nc23)cc1`
Out: inactive

In: Called result for `C[C@@H]1CN(c2ccc3ncc(C#Cc4cncc(C(=O)Nc5ccc(CN6CCN(C)CC6)c(C(F)(F)F)c5)c4)n3n2)C[C@@H](C)O1`
Out: active

In: Called result for `COC(=O)c1cc(C(C)=O)n2c3ccccc3c3ccccc3c12`
Out: inactive

In: Called result for `O=[N+]([O-])c1cccc(-c2nnc3c(/C=C/c4ccc(F)cc4)nc4ccccc4n23)c1`
Out: inactive

In: Called result for `O=c1ccc(Cn2c(C(F)(F)F)cc3c(Cl)ncnc32)c[nH]1`
Out: inactive

In: Called result for `CCC(=O)c1c2c(c3ccc4c5ccccc5ccc4n13)C(=O)c1ccccc1C2=O`
Out: inactive

In: Called result for `CC(C)CN1C(=O)/C(=C\C(=O)c2cc3ccccc3oc2=O)c2ccccc21`
Out: inactive

In: Called result for Cc1ccc(O)cc1Nc1nc(SCCN2CCOCC2)nc2c1cnn2CC(Cl)c1ccc(Br)cc1 (stereo not given)
Out: active

In: Called result for `Clc1ccc(Nc2nnc(-c3c[nH]c4ccccc34)o2)cc1`
Out: inactive
